Source: PubChem BioAssay (NCI)

- System: SNB-75 CNS
- PROCEDURE_SUMMARY: NCI tumour cell line growth inhibition, 48 h
Known TGI of a selection of compounds
Write it as a number; the unit µM goes unstated.

• C1=C(CC2=C[P+](c3ccccc3)(c3ccccc3)C=C(c3ccccc3)O2)OC(c2ccccc2)=C[P+]1(c1ccccc1)c1ccccc1 = 0.881

API: the following record is the query input.
Exam item: Dear colleague, please send me the reported TGI for COc1ccccc1C[C@@H]1OC2(C=CC(=O)CC2SC(=O)c2ccccc2)O[C@H]1Cc1ccccc1OC (stereo not given in full) when you can.
Marked response: 3.28

###

Known TGI of a selection of molecules
- Tested on: CAKI-1 renal
- PROCEDURE_SUMMARY: NCI tumour cell line growth inhibition, 48 h

* O=C(CP(=O)(c1ccccc1)c1ccccc1)c1cccc(C(=O)CP(=O)(c2ccccc2)c2ccccc2)c1 | > 100 µM
* Cc1ccc2nc3c(C(=O)NCCN(C)C)cccc3nc2c1 | > 31.6 µM
* C1C2CC3CC1CC(c1nn4c(C56CC7CC(CC(C7)C5)C6)nnc4s1)(C2)C3 | > 100 µM
* CCC(C)C(=O)OC1C(=O)OC2CC3C(C)=CC(=O)C(O)C3(C)C3C4(O)OCC23C1C(C)C4O (stereo not drawn) | 7.44 µM

Exam item: Dear colleague, please send me the reported TGI for "CC(=O)O[C@H]1C(=O)[C@@]2(C)[C@H]([C@H](OC(=O)c3ccccc3)[C@]3(O)C[C@H](OC(=O)[C@H](O)[C@@H](NC(=O)c4ccc(N)cc4)c4ccccc4)C(C)=C1C3(C)C)[C@]1(OC(C)=O)CO[C@@H]1C[C@@H]2O" when you can.
Marked response: > 50 µM

Exam item: Dear colleague, please send me the reported TGI for "[O-][n+]1nc(N2CCOCC2)nc2ccccc21" when you can.
Marked response: > 100 µM

Exam item: Dear colleague, please send me the reported TGI for "Cc1ccc(/C(=C/C=C(C#N)C#N)Sc2ccc(Cl)cc2)cc1" when you can.
Marked response: 5.3 µM

Exam item: Dear colleague, please send me the reported TGI for "C=CCN1C(=O)/C(=C/c2ccc(Cl)cc2)N=C1SC/C=C/C" when you can.
Marked response: > 100 µM
